Tested on: SNB-19 CNS
Assay Details: NCI-60 one-dose screen, 48 h (100 = growth as untreated, 0 = no growth, -100 = all killed)
Test Parameters: 10 µM unless noted
About 83,000 compounds went through this panel and 20% of them were active in at least one assay; those are over-represented in the sample as a whole.
Assignment: determine reported growth for the given compounds.
Numeric answer only, unit % assumed.

INPUT: Consider the compound CC1[C@H](C)OC(=O)CC(O)CC(O)CC(O)CCC(O)C(O)C[C@]2(O)CC(O)C(C(=O)O)C(CC(OC3O[C@H](C)[C@@H](O)[C@H](N)[C@@H]3O)/C=C/C=C/C=C/C=C/CC/C=C/C=C/[C@H](C)[C@H]1O)O2 (stereo partly specified) and give its measured growth.
OUTPUT: 109

INPUT: Can you look up the measured growth of "C/C(Cc1ccc(Cl)cc1)=C(\c1ccc(OCCN2CCOCC2)cc1)c1ccc(OC(=O)Cc2ccccc2)cc1" for me?
OUTPUT: 101

INPUT: Recorded growth of "Cc1ccc(Nc2nc3c(s2)C2=CC[C@@H]4[C@H](CC[C@]5(C)C(=O)CC[C@@H]45)[C@@]2(C)CC3)cc1" , please.
OUTPUT: 55.4

INPUT: growth lookup needed for "CN1C(=O)C(=Cc2cn(CCCCCCn3c4ccccc4c(=O)c4ccccc43)c3ccccc23)C(=O)N(C)C1=O" , thanks.
OUTPUT: 104

INPUT: Item under review: "ClCCN(CCCl)c1ccc(OCc2ccccc2)cc1" . Reported growth?
OUTPUT: 57.1

INPUT: What does the record list as growth for "CCOc1ccccc1C(=O)OCC(Cl)(Cl)Cl" ?
OUTPUT: 107

INPUT: // growth lookup, key: "COc1cc(C=Nc2cccc(Br)c2)ccc1N(CCCl)CCCl"
OUTPUT: 91.9

INPUT: So what's the measured growth for this one? "CCCCCC1(CCBr)C(=O)NC(=O)NC1=O"
OUTPUT: 111

INPUT: # growth lookup, item "Fc1cccc(NCOOC2(OOCNc3cccc(F)c3)CCCCC2)c1"
OUTPUT: 96.2

INPUT: growth lookup needed for "O=C(CCl)c1ccc([N+](=O)[O-])o1" , thanks.
OUTPUT: 75.4

INPUT: What growth value was documented for this compound, "Fc1ccc(C2=CCNCC2)cc1" ?
OUTPUT: 109

INPUT: Quick one: growth for "NC(CCl)CCl" ?
OUTPUT: 105

INPUT: Please give the measured growth for this compound: "CNC(=O)Oc1cccc(C(F)(F)F)c1"
OUTPUT: 103

INPUT: What value of growth has been reported for the following compound? "Cc1c(C)c([N+](=O)[O-])c(C)c(C)c1[N+](=O)[O-]"
OUTPUT: 103

INPUT: Can you share its growth? I mean this compound: "COc1ccc(Nc2ccnc3cc(Cl)ccc23)cc1CN(CCCl)CCCl"
OUTPUT: -0.124

INPUT: # input compound: COP(=O)(OC)C(O)c1ccc(Cl)cc1 (stereo unspecified) ; wanted: its growth
OUTPUT: 110

INPUT: Which growth value is on record for "O=C1C(Cl)=C(N2CCOCC2)C(=O)c2ccccc21" ?
OUTPUT: 116

INPUT: Using the record for CCCCN1CCCC[C@@H]1C(=O)N[C@H](C(=O)N(C)[C@H](C[C@@H](OC(C)=O)c1nc(C(=O)NC2CCC(C(=O)OC)CC2)cs1)C(C)C)C(C)C (stereo partly specified) , report its growth.
OUTPUT: 24

INPUT: Return reported growth; argument: O=C1C2CC=CCC2C(=O)N1SC(Cl)(Cl)Cl (stereo unspecified)
OUTPUT: 91.5

INPUT: Reported growth for "COc1cc(/C=C\c2cc(OC)c(OC)c(OC)c2)cc(N/C=C\C(=O)c2cc(OC)c(OC)c(OC)c2)c1OC" : what is it?
OUTPUT: 43.4

INPUT: Can you look up the measured growth of "COc1cccc2c1c(C(=O)C(=O)Nc1ccn[nH]1)cn2Cc1ccc(F)cc1" for me?
OUTPUT: 107
